System: L1210 leukemia ip in BDF1 mice, survival T/C
PROCEDURE_DETAILS: NCI In Vivo Anticancer Drug Screen. Data for tumor model L1210 Leukemia (intraperitoneal) in B6D2F1 (BDF1) mice
TEST_SETTINGS: endpoint: mean survival time; dose: 6.25 mg/kg/injection; schedule: Q01DX009 (ip); vehicle: Klucel (hydroxypropylcellulose) (HPC); higher = longer survival
Toxic doses and inconclusive results are not listed.
OBSERVED_PROPERTY: T/C

> print(dat)
                                   compound                             target.system    value.measured
1  Cc1cnc(-n2nc(-c3ccccc3)c3c2-c2ccccc2C3)nc1-c1ccccc1O  L1210 leukemia ip in BDF1 mice, survival T/C   91 % of control
2                        N#CC(C#N)=Cc1ccsc1  L1210 leukemia ip in BDF1 mice, survival T/C  102 % of control
3                Cn1c(=O)c2n[se]nc2n(C)c1=O  L1210 leukemia ip in BDF1 mice, survival T/C   94 % of control
4  O=C(Nc1ccc(F)c(Cl)c1)OCC1CCCO1 (stereo unspecified)  L1210 leukemia ip in BDF1 mice, survival T/C   92 % of control
5  Cc1cc(=O)oc2c(OS(C)(=O)=O)c(OS(C)(=O)=O)ccc12  L1210 leukemia ip in BDF1 mice, survival T/C  100 % of control

// moving on: another record for T/C
Inquiry: Give me measured T/C, please, for this compound: "COc1ccc2cc3[n+](cc2c1OC)CCc1cc2c(cc1-3)OCO2"
Reply text: 117 % of control

* * *

System: L1210 leukemia ip in BDF1 mice, survival T/C
PROCEDURE_DETAILS: NCI In Vivo Anticancer Drug Screen. Data for tumor model L1210 Leukemia (intraperitoneal) in B6D2F1 (BDF1) mice
TEST_SETTINGS: endpoint: mean survival time; dose: 400.0 mg/kg/injection; schedule: Q04DX003 (ip); vehicle: carboxymethylcellulose (CMC); higher = longer survival
Inconclusive results and toxic doses are left out.
OBSERVED_PROPERTY: T/C

Example results:
> print(dat)
                                   compound  observed.property    value.measured
1  CCOC(=O)c1c(C)c2c(n1C)CCCC2O (stereo not given)                T/C   95 % of control
2             N=Nc1ccc2c(O)c3ccccc3c(O)c2c1                T/C  101 % of control
3  O=C(Oc1cc(Cl)c(S(=O)(=O)F)cc1Cl)c1ccccc1Cl                T/C   88 % of control
4  O=C1C2C3CCC(O3)C2C(=O)N1CCOS(=O)(=O)c1ccc(Cl)cc1 (stereo not given)                T/C   96 % of control

Inquiry: State its T/C for this compound: "CCn1c(=O)n(C)c(=O)n1C(=O)c1ccccc1"
Reply text: 109 % of control

* * *

Test system: L1210 leukemia ip in BDF1 mice, survival T/C
PROCEDURE_DETAILS: NCI In Vivo Anticancer Drug Screen. Data for tumor model L1210 Leukemia (intraperitoneal) in B6D2F1 (BDF1) mice
TEST_SETTINGS: endpoint: mean survival time; dose: 25.0 mg/kg/injection; schedule: Q01DX009 (ip); vehicle: saline
Toxic doses and inconclusive results are not listed. Cut-off read from the data, not from the text of the source: active = T/C of 150% or more; inactive = T/C below 125%.
Choose one outcome from this list and give only that: true (active), false (inactive)

> print(dat)
                                   molecule  qualitative.label
1  CC(C)=CC(=O)OC1C2C(C)C(=O)OC2C(O)C(C)C2C=CC(=O)C21C (stereo not given)              false
2            COc1ccc(C(=O)NC[n+]2ccccc2)cc1              false

Inquiry: Fill in: this test's call for "CCCCCCCCCCCCCCCC[N+]1([O-])CCOCC1" is ___
Reply text: false

Inquiry: I'd appreciate the recorded outcome for C=CC[N+]12CCCC1C(=C)CC2 (stereo not given) from this test.
Reply text: false

Inquiry: Please state the recorded outcome for this molecule: "[Co].[NH-]CC[N-]CCO.[NH-]CC[N-]CCO"
Reply text: false

Inquiry: Entry O=C(O)C1CCC2CCCCC2[N-]1.O=C(O)C1CCC2CCCCC2[N-]1.[Cu+2] (stereo not given) : call = ?
Reply text: false

Inquiry: Short answer needed: outcome of this test for "CC(=O)n1cc(F)c(=O)[nH]c1=O" ?
Reply text: true

* * *

Tested on: L1210 leukemia ip in BDF1 mice, survival T/C
PROCEDURE_DETAILS: NCI In Vivo Anticancer Drug Screen. Data for tumor model L1210 Leukemia (intraperitoneal) in B6D2F1 (BDF1) mice
TEST_SETTINGS: endpoint: mean survival time; dose: 400.0 mg/kg/injection; schedule: Q04DX002 (ip); vehicle: saline with Tween-80; higher = longer survival
Inconclusive results and toxic doses are left out.
For each entry below, report its T/C value.

> print(dat)
                                   compound   value.measured
1                   O=S(=O)(CCCl)CCc1ccccc1  93 % of control
2             O=C1NC(=S)S/C1=C/C=C/c1ccccc1  98 % of control
3         CC(C)OC(=O)Nc1cccc(NC(=O)OCCCl)c1  97 % of control
4          CCOC(CN(Cc1ccccc1)CC(OCC)OCC)OCC  91 % of control
5  COc1c(NC(=O)Nc2ccccc2Cl)cccc1[N+](=O)[O-]  90 % of control

Fill in T/C for each of the 4 compounds listed.
1. C=CCOC(=O)Nc1cccc(O)c1
2. CSc1ccc(OC(=O)Nc2cc([N+](=O)[O-])ccc2F)cc1C
3. COc1ccc(C2CC(=O)OC(=O)C2)cc1
4. CC(=O)NC(C=O)C(OC(C)=O)C(OC(C)=O)C(COC(C)=O)OC(C)=O (centres undefined)

Reply text:
1: 103 % of control; 2: 91 % of control; 3: 95 % of control; 4: 96 % of control

* * *

Test system: L1210 leukemia ip in BDF1 mice, survival T/C
PROCEDURE_DETAILS: NCI In Vivo Anticancer Drug Screen. Data for tumor model L1210 Leukemia (intraperitoneal) in B6D2F1 (BDF1) mice
TEST_SETTINGS: endpoint: mean survival time; dose: 200.0 mg/kg/injection; schedule: Q04DX003 (ip); vehicle: saline sonified; higher = longer survival
Toxic doses and inconclusive results are not listed.
OBSERVED_PROPERTY: T/C

> print(dat)
                  compound  observed.property    value.measured
1  CCNC(=O)NC(=O)CN1CCOCC1                T/C  102 % of control

Please go through the list and note T/C for each compound.
1. COc1cc2ccc(CN3CCCC3C(=O)OCc3ccccc3)cc2cc1OC (centres undefined)
2. CNC(=S)N(C)C
3. ClC(CN1CCCCC1)C(Cl)c1ccccc1 (centres undefined)

Reply text:
1. 96 % of control
2. 103 % of control
3. 101 % of control

* * *

Test system: L1210 leukemia ip in BDF1 mice, survival T/C
PROCEDURE_DETAILS: NCI In Vivo Anticancer Drug Screen. Data for tumor model L1210 Leukemia (intraperitoneal) in B6D2F1 (BDF1) mice
TEST_SETTINGS: endpoint: mean survival time; dose: 400.0 mg/kg/injection; schedule: Q04DX003 (ip); vehicle: saline with Tween-80; higher = longer survival
Inconclusive results and toxic doses are left out.
Can you tell me T/C for the items I'm about to list?

Example entries and their recorded answers appear below.
> print(dat)
                                   molecule    value.measured
1  Cc1cc([N+](=O)[O-])c(Nc2ccc(F)cc2)c([N+](=O)[O-])c1  100 % of control
2  CC(C)C1=CC2=CCC3C(C)(C(N)=O)CCCC3(C)C2CC1CC#N (stereo unspecified)   93 % of control
3  CCCCCCCCCCCCCCCCCC[Se]CCCCCCCCCCCCCCCCCC   93 % of control
4  C=C1C(=O)OC2C1CCC(C)C1(CCC(=O)O1)C2(C)O (stereo unspecified)   96 % of control
5  CC(=O)OC1C(OC(C)=O)C(OS(=O)(=O)c2ccc(C)cc2)C(OC(C)=O)C(OS(=O)(=O)c2ccc(C)cc2)C1OC(C)=O (stereo unspecified)   95 % of control
6     Cc1cc(Br)c2ccccc2c1NS(=O)(=O)c1ccccc1  105 % of control

Batch lookup, T/C per entry.
1. Cc1nc(N)sc1S(=O)(=O)F
2. NC(CC(=O)O)c1nn[nH]n1 (stereo unspecified)
3. CN1C(=O)NC(C)(c2cccs2)C1=O (stereo unspecified)
4. CC(C)C(C=O)(CCN(C)Cc1ccccc1)c1cccc2ccccc12 (stereo unspecified)
5. FC(F)(F)c1cccc(P(c2cccc(C(F)(F)F)c2)c2ccccc2C(F)(F)F)c1

Reply text:
1. 97 % of control
2. 103 % of control
3. 97 % of control
4. 100 % of control
5. 87 % of control
